Target: Phosphatidylinositol 5-phosphate 4-kinase type-2 alpha (Homo sapiens)
Assay: qHTS for Inhibitors of PI5P4K: Confirmation in Primary Assay; further: nearly all actives have a fitted effect of over 65% in size
Conditions: PI5P4Kalpha enzyme, ADP-Glo luminescence, 60 min; series mostly up to 76.9 µM
Among all 1,100 compounds or so, about 340 (31%) were called active. Another 40% or so got no clear call; they are omitted. The call rests on the fitted dose curve; in most records, active means well fitted inhibition curve with a large enough effect; inconclusive means small, poorly fitted or top-dose-only effect; inactive means flat fitted curve, though single readings scatter. Only a sample is shown.
Pick one and only one: Yes for active, No for inactive

[[record]]
compound = "COc1ccc(C2=CC3=C(Br)C(=O)C(C)(OC(=O)c4cccs4)C(=O)C3=CO2)cc1 (stereo unspecified)"
group = "Yes"

[[record]]
compound = "CCN(CC(=O)Nc1ccc(NC(C)=O)cc1)Cc1c(O)ccc2cc(Br)ccc12"
group = "Yes"


query: How did this test come out for Cc1cccc(C2Nc3ccccc3C(=O)N2c2ccc(F)cc2)n1 (stereo unspecified) ?
result: No

query: How did this test come out for Cc1ccc(NCC(=O)Nc2ccc(Br)cc2)cc1C ?
result: No

query: How did this test come out for CN(C)S(=O)(=O)c1cccc(C(=O)OCC(=O)Nc2sccc2C(N)=O)c1 ?
result: No

query: How did this test come out for Cc1cc(NC(=O)Nc2ccccc2[N+](=O)[O-])no1 ?
result: No
